Where these numbers come from: ChEMBL document CHEMBL4813944

Experiment: Cytotoxicity against human SH-SY5Y cells assessed as cell viability at 1000 uM measured after 24 hrs by calcein-AM staining based fluorescence analysis
Details: read-out: Activity
experimental_readout: viability at 24 h, 1000 µM (%)

[[record]]
compound = "CC(=O)N[C@@H](CS)C(=O)O [ACETYLCYSTEINE]"
experimental_readout = "viability at 24 h, 1000 µM"
endpoint_value = 120


----------
Catalogue of compounds with associated viability at 24 h, 10 µM
Test: Cytotoxicity against human SH-SY5Y cells assessed as cell viability at 10 uM measured after 24 hrs by calcein-AM staining based fluorescence analysis
Conditions: read-out: Activity
experimental_readout: viability at 24 h, 10 µM (%)

[[record]]
compound = "C=C(C(=O)O)[C@@H]1CC[C@]2(COC(C)=O)CC[C@]3(C)[C@H](CC[C@@H]4[C@@]5(C)CC[C@H](OC(C)=O)C(C)(C)[C@@H]5CC[C@]43C)[C@@H]12"
endpoint_value = 11.6

[[record]]
compound = "C=C(C(=O)OCc1c[nH]nn1)[C@@H]1CC[C@]2(COC(C)=O)CC[C@]3(C)[C@H](CC[C@@H]4[C@@]5(C)CC[C@H](OC(C)=O)C(C)(C)[C@@H]5CC[C@]43C)[C@@H]12"
endpoint_value = 30.5

[[record]]
compound = "C=C(C(=O)OCc1cn([C@@H]2O[C@H](COC(C)=O)[C@@H](OC(C)=O)[C@H](OC(C)=O)[C@H]2OC(C)=O)nn1)[C@@H]1CC[C@]2(COC(C)=O)CC[C@]3(C)[C@H](CC[C@@H]4[C@@]5(C)CC[C@H](OC(C)=O)C(C)(C)[C@@H]5CC[C@]43C)[C@@H]12"
endpoint_value = 128

[[record]]
compound = "CC(=O)OC[C@H]1O[C@@H](n2cc(CO)nn2)[C@H](OC(C)=O)[C@@H](OC(C)=O)[C@H]1OC(C)=O"
endpoint_value = 100

[[record]]
compound = "C=C(C(=O)OCc1cn([C@@H]2O[C@H](COC(C)=O)[C@H](OC(C)=O)[C@H](OC(C)=O)[C@H]2OC(C)=O)nn1)[C@@H]1CC[C@]2(COC(C)=O)CC[C@]3(C)[C@H](CC[C@@H]4[C@@]5(C)CC[C@H](OC(C)=O)C(C)(C)[C@@H]5CC[C@]43C)[C@@H]12"
endpoint_value = 130

[[record]]
compound = "CC(=O)N[C@@H](CS)C(=O)O"
endpoint_value = 108

[[record]]
compound = "COC(=O)[C@]12CCC(C)(C)C[C@@H]1[C@H]1C=C[C@@H]3[C@@]4(C)CC(SC#N)C(=O)C(C)(C)[C@@H]4CC[C@@]3(C)[C@]1(C)CC2 (stereo partly specified)"
endpoint_value = 99.2

[[record]]
compound = "C=C(Cn1cc(-c2cccnc2)nn1)[C@@H]1CC[C@]2(C(=O)O)CC[C@]3(C)[C@H](CC[C@@H]4[C@@]5(C)CC[C@H](OC(C)=O)C(C)(C)[C@@H]5CC[C@]43C)[C@@H]12"
endpoint_value = 57.6

[[record]]
compound = "CC1(C)CC[C@]23CC[C@]4(C)[C@H](CC[C@@H]5[C@@]6(C)CC(C#N)=C(O)C(C)(C)[C@@H]6CC[C@]54C)[C@H]2[C@H]1OC3"
endpoint_value = 98.8

[[record]]
compound = "C=C(Cn1cc(-c2cccnc2)nn1)[C@@H]1CC[C@]2(C(=O)O)CC[C@]3(C)[C@H](CC[C@@H]4[C@@]5(C)CC[C@H](O)C(C)(C)[C@@H]5CC[C@]43C)[C@@H]12"
endpoint_value = 133

[[record]]
compound = "C=C(C)[C@@H]1CC[C@]2(C(=O)O)CC[C@]3(C)[C@H](C=C[C@@H]4[C@@]5(C)Cc6sc(N7CCOCC7)nc6C(C)(C)[C@@H]5CC[C@]43C)[C@@H]12"
endpoint_value = 87

